# tgt: T1, fusion protein hPD1-HSA composed of a PD1 extracellular domain sequence and a human serum albumin sequence (human)
# T1 construct: PD-1 extracellular domain fused to HSA; also called Human hPD1-HSA; human PD-1
# experimentDescription: ELISA, hPD1-HSA coated 200 ng/well, VHH 1 µg/mL, anti-his detection

{"binder": "anti-PD-1 single-domain antibody clone 2D9, histidine-tagged, from E. coli (VHH, Alpaca VHH expressed in E. coli Rosetta (DE3) from pET32a+, purified on a Ni column; not shown: C-terminal histidine tag) VHH: QVQLVESGGGLVQPGGSLRLSCAASGSVFIIDVMAWYRQAPGKQRELVAQIINGDAKYYADSVKGRFTISRDNTKTTLYLQMNSLKPDDTAVYYCSAEQFNPYRDSTYFWGQGTQVTVSS", "OD450 nm": "2.11 OD450 nm"}
{"binder": "anti-PD-1 single-domain antibody clone 1H1, histidine-tagged, from E. coli (VHH, Alpaca VHH expressed in E. coli Rosetta (DE3) from pET32a+, purified on a Ni column; not shown: C-terminal histidine tag) VHH: QVQLVESGGGLVQPGGSLNLSCVASGSVFIIDVMAWYRQAPGKQRELVAQIINGGASYYADSVKGRFTISRDNTKTTLFLQMNSLKPADTAVYYCNAEKFNPYRDSTNFWGQGTQVTVSS", "OD450 nm": "2.17 OD450 nm"}
{"binder": "anti-PD-1 single-domain antibody clone 2C4, histidine-tagged, from E. coli (VHH, Alpaca VHH expressed in E. coli Rosetta (DE3) from pET32a+, purified on a Ni column; not shown: C-terminal histidine tag) VHH: QVQLVESGGGLVRPGGSLRLSCAASGSVFIIDVMAWYRQAPGKQRELVAQIISGDHAYYADSVKGRFTISRDDTKTTLYLQMNSLKPDDTAVYYCSAEKFNPYRDSTYFWGQGTQVTVSS", "OD450 nm": "2.14 OD450 nm"}
{"binder": "anti-PD-1 single-domain antibody clone 1D3, histidine-tagged, from E. coli (VHH, Alpaca VHH expressed in E. coli Rosetta (DE3) from pET32a+, purified on a Ni column; not shown: C-terminal histidine tag) VHH: QVQLVESGGGLVQPGGSLNLSCVASGSVFIIDVMAWYRQAPGKQRELVAQIINGGATYYADSVKGRFTISRDDTKTTLYLQMNSLKPDDTAVYYCSAEKFNPYRDSTHFWGQGTQVTVSS", "OD450 nm": "2.1 OD450 nm"}
{"binder": "anti-PD-1 single-domain antibody clone 1A4, histidine-tagged, from E. coli (VHH, Alpaca VHH expressed in E. coli Rosetta (DE3) from pET32a+, purified on a Ni column; not shown: C-terminal histidine tag) VHH: QVQLVESGGGLVQPGGSLNLSCVASGNVFIIDVMAWYRQAPGKQRELVAQIINGDAKYYVDSVKGRFTISRDNTKTTLYLQMNSLKPDDTAIYYCSAEKFNPYRDSTNFWGQGTQVTVSS", "OD450 nm": "2.13 OD450 nm"}
{"binder": "anti-PD-1 single-domain antibody clone 1A9, histidine-tagged, from E. coli (VHH, Alpaca VHH expressed in E. coli Rosetta (DE3) from pET32a+, purified on a Ni column; not shown: C-terminal histidine tag) VHH: QVQLVESGGGLVQPGGSLNLSCVASGNVFIIDVMAWYRQAPGKQRELVAQIINGGATYYADSVKGRFTISRDDTKTTLNLQMNSLKPDDTAVYYCSAEKFNPYRDSTHFWGQGTQVTVSA", "OD450 nm": "2.12 OD450 nm"}
